# Tested on: HOP-18
# Protocol Notes: NCI tumour cell line growth inhibition, 48 h
Calls of active or inactive are those of the source. Cut-off read from the data, not from the text of the source: active = GI50 up to about 1.1 µM and inactive = higher.
Outcome Measure: GI50

>>> print(df.to_string())
                                   compound  outcome_measure               result
0  CC1CC[C@]2(C(=O)O)CCC3(C)C(=CC(=O)C4[C@@]5(C)CCC(=O)C(C)(C)C5CC[C@]43C)[C@@H]2[C@H]1C (stereo not given in full)             GI50   31.9 µM (inactive)
1                     CCN(C(=N)C#N)c1ccccc1             GI50  > 100 µM (inactive)
2  CC(=O)[C@]1(O)Cc2c(O)c3c(c(O)c2[C@@H](OC2CC(N)C(O)C(C)O2)C1)C(=O)c1c(OCc2ccccc2)cccc1C3=O (stereo not given in full)             GI50   1.71 µM (inactive)
3  O=C(/C=C/c1ccccc1Cl)NC1C=Nc2ccc([N+](=O)[O-])cc2NC1 (stereo not given)             GI50  > 100 µM (inactive)
4  CC(=O)[O-].Cc1ncc(CO)c(/C=N/NC(N)=S)c1[O-].[Zn+2]             GI50  > 100 µM (inactive)
5  CCC1(O)C(=O)OCc2c1cc1n(c2=O)Cc2cc3cc(OC)c(OC)cc3nc2-1 (stereo not given)             GI50   56.8 µM (inactive)
6          O=C1N[C@@H]2CCCC[C@@H]2C12CCCCC2             GI50  > 100 µM (inactive)
7  NS(=O)(=O)c1ccc(NC(=O)c2cccc3cc4ccccc4nc23)cc1             GI50  > 100 µM (inactive)
8  NC(CCc1nc(-c2ccc(Cl)cc2)cs1)C(=O)O (stereo not given)             GI50  > 100 µM (inactive)
9  NCC(=O)OCN1C(=O)C2C3C=CC(C2C1=O)C1C2C(=O)N(COC(=O)CN)C(=O)C2C31 (stereo not given)             GI50   25.9 µM (inactive)
